Catalogue of EC50 values
# Test system: Chikungunya virus
# assay details: Antiviral activity against Chikungunya virus infected in African green monkey Vero cells assessed as reduction in viral induced cell death incubated for 5 days by MTS reagent based absorbance method
# Format: functional, organism-based
# condition parameters: 120 h

Solved cases (6 shown):
Nc1nc(N2CCN(C(=O)c3ccc(Cl)c(Cl)c3)CC2)c2nc[nH]c2n1	> 100 µM
CCNc1cc(C)nc(N2CCC(NC(=O)c3cc(Cl)cc(Cl)c3)CC2)n1	> 100 µM
CCNc1nc(C)cc(N2CCN(C(=O)c3ccc(C)c(C)c3)CC2)n1	0.95 µM
CCNc1cc(C)nc(N2CCN(C(=O)C3CCCCC3)CC2)n1	70 µM
CCNc1cc(C(F)(F)F)nc(N2CCN(C(=O)c3ccc(Br)cc3)CC2)n1	> 6.3 µM
CCNc1nc(C)cc(NC2CCN(C(=O)c3cc(Cl)cc(Cl)c3)CC2)n1	14 µM

IN: Entry CCNc1nc(C)cc(N2CCN(C(=O)c3ccc(Cl)c(Cl)c3)CC2)n1 : reported EC50 = ?
OUT: 0.57 µM

###

Catalogue of pEC50 values
# System: Chikungunya virus
# assay details: Antiviral activity against Chikungunya virus infected in African green monkey Vero cells assessed as reduction in viral induced cell death incubated for 5 days by MTS reagent based absorbance method
# Assay type: functional, organism-based
# condition parameters: 120 h
Interpret pEC50 as the negative base-10 log of the concentration measured in mol/L.

CCNc1cc(C)nc(N2CCN(C(=O)c3cccc([N+](=O)[O-])c3)CC2)n1	5.38
O=C(c1ccc(Cl)cc1)N1CCN(c2nc(C(F)(F)F)nc3[nH]cnc23)CC1	4.59
CCNc1nc(C)cc(N2CC3CCC(C2)N3C(=O)c2ccc(Cl)cc2)n1	4.77

Could you now consider this next molecule?
IN: Entry O=C(c1cc(Cl)cc(Cl)c1)N1CCN(c2nc(Cl)nc3[nH]cnc23)CC1 : reported pEC50 = ?
OUT: 4.74

###

# Tested on: Chikungunya virus
# assay details: Antiviral activity against Chikungunya virus infected in African green monkey Vero cells assessed as reduction in viral induced cell death incubated for 5 days by MTS reagent based absorbance method
# Format: functional, organism-based
# condition parameters: 120 h
Note to self: EC50 under 5 µM means 1.0, ties and anything higher get 0.0.

Example entries begin here.
CCNc1nc(C)cc(N2CCN(C(=O)c3ccc(I)cc3)CC2)n1	1.0
CCNc1nc(N2CCN(C(=O)c3ccc(Cl)c(Cl)c3)CC2)cc(C(F)(F)F)n1	0.0
CCNc1cc(C(F)(F)F)nc(N2CCN(C(=O)c3ccc(Cl)c(Cl)c3)CC2)n1	0.0
CCNc1ccnc(N2CCN(C(=O)c3ccc(F)cc3)CC2)n1	1.0
CCNc1cc(C)nc(N2CCC3(CCN(C(=O)c4ccc(Cl)cc4)C3)C2)n1 (stereo not drawn)	0.0

IN: is_below(EC50, 5 µM) for CCNc1cc(C)nc(N2CCN(C(=O)c3ccc(I)cc3)CC2)n1 ?
OUT: 1.0

IN: is_below(EC50, 5 µM) for Cc1cc(N2CCN(S(=O)(=O)c3ccc(Cl)cc3)CC2)nc(NC(C)C)n1 ?
OUT: 1.0

IN: is_below(EC50, 5 µM) for CCCS(=O)(=O)N1CCN(c2nc(C)cc(NCC)n2)CC1 ?
OUT: 0.0

IN: is_below(EC50, 5 µM) for CCNc1nc(C)cc(N2CCC3(CCN(C(=O)c4cc(Cl)cc(Cl)c4)C3)C2)n1 (stereo not drawn) ?
OUT: 0.0

IN: is_below(EC50, 5 µM) for CCNc1nc(C)cc(N2CCN(C(=O)c3cccc(Cl)c3)CC2)n1 ?
OUT: 0.0

IN: is_below(EC50, 5 µM) for CCCC(=O)N1CCN(c2nc(C)cc(NCC)n2)CC1 ?
OUT: 0.0

IN: is_below(EC50, 5 µM) for CCNc1cc(C)nc(N2CCN(C(=O)c3cc(Cl)cc(Cl)c3)CC2)n1 ?
OUT: 0.0

Reference source: ChEMBL document CHEMBL5537149
